target: GABA A receptor alpha-5/beta-3/gamma-2 (Rattus norvegicus, UniProt P18508+P19969+P63079); experiment: Displacement of [3H]flumazenil from rat GABA-Aalpha5 receptor plus beta-3-gamma-2 in HEK293 cells
Sequence (P18508 whole entry): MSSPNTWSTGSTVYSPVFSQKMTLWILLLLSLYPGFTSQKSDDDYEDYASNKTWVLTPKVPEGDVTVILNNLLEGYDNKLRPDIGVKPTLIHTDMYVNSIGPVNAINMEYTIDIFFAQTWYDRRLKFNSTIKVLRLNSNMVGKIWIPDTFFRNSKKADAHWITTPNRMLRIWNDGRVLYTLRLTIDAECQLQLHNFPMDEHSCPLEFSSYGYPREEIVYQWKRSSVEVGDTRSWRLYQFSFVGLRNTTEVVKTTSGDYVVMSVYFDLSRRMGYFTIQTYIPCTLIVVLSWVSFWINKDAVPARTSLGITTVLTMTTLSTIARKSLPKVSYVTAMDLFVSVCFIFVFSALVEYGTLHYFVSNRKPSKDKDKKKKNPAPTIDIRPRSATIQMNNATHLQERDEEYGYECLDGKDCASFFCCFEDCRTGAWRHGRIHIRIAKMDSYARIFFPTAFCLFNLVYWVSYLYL
Sequence (P19969 whole entry): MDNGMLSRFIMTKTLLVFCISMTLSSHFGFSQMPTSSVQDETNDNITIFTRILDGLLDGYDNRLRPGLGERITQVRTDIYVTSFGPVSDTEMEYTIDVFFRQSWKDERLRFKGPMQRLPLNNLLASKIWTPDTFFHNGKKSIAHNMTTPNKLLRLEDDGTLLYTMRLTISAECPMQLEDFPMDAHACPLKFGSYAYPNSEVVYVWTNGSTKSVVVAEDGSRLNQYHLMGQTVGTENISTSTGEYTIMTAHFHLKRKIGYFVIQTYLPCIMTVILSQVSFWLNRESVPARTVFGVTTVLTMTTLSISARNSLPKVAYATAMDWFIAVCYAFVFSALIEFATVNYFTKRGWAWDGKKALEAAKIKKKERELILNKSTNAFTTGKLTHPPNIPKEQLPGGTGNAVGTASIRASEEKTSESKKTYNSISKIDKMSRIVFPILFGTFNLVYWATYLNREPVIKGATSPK
Sequence (P63079 whole entry): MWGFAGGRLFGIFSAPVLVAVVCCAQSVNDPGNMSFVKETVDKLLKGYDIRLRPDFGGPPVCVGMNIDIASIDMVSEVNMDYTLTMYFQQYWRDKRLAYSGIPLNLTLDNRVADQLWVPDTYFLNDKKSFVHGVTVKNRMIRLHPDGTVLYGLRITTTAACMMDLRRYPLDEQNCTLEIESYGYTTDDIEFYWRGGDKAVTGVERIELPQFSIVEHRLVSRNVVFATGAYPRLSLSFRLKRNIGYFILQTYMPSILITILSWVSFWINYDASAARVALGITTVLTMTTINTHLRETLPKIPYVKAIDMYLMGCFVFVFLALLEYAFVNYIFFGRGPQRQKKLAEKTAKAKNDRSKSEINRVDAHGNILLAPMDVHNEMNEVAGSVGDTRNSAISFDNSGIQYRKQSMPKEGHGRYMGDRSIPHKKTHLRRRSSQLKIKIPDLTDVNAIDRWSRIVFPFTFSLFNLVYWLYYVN
observed-property: Ki (nM)
The figure you give is taken to be in nM; do not add the unit.

Lookup: Look up Ki with GABA A receptor alpha-5/beta-3/gamma-2 (Rattus norvegicus, UniProt P18508+P19969+P63079) for this compound: "O=C(NCc1ccc[nH]1)C(=O)c1c[nH]c2ccccc12"
Found: 1500

Lookup: Look up Ki with GABA A receptor alpha-5/beta-3/gamma-2 (Rattus norvegicus, UniProt P18508+P19969+P63079) for this compound: "O=C(NCc1cc[nH]c1)C(=O)c1c[nH]c2ccc([N+](=O)[O-])cc12"
Found: 1600

Lookup: Look up Ki with GABA A receptor alpha-5/beta-3/gamma-2 (Rattus norvegicus, UniProt P18508+P19969+P63079) for this compound: "O=C(NCc1cc[nH]c1)C(=O)c1c[nH]c2ccccc12"
Found: 681

* * *

biological target: GABA-A receptor; anion channel; assay: Displacement of [3H]flumazenil from GABA-A receptor in bovine brain membranes
pKi: −log10 of the molar value.
Assign 1 to entries whose pKi meets or exceeds 7; assign 0 to the rest.

Lookup: Does the molecule "O=C(NCc1ccccn1)C(=O)c1c[nH]c2ccc([N+](=O)[O-])cc12" have recorded pKi that is 7 or more?
Found: 0

Lookup: Does the molecule "O=C(NCc1ccncc1)C(=O)c1c[nH]c2ccc([N+](=O)[O-])cc12" have recorded pKi that is 7 or more?
Found: 0

Lookup: Does the molecule "O=C(NCc1ccco1)C(=O)c1c[nH]c2ccc([N+](=O)[O-])cc12" have recorded pKi that is 7 or more?
Found: 1

Lookup: Does the molecule "Cc1ccc(CNC(=O)C(=O)c2c[nH]c3ccc([N+](=O)[O-])cc23)o1" have recorded pKi that is 7 or more?
Found: 1

Lookup: Does the molecule "O=C(NCc1ccc[nH]1)C(=O)c1c[nH]c2ccccc12" have recorded pKi that is 7 or more?
Found: 0

Lookup: Does the molecule "O=C(NCc1cc2ccccc2[nH]1)C(=O)c1c[nH]c2ccc([N+](=O)[O-])cc12" have recorded pKi that is 7 or more?
Found: 0

Lookup: Does the molecule "Cn1cccc1CNC(=O)C(=O)c1c[nH]c2ccccc12" have recorded pKi that is 7 or more?
Found: 0

Lookup: Does the molecule "O=C(NCc1cc[nH]c1)C(=O)c1c[nH]c2ccccc12" have recorded pKi that is 7 or more?
Found: 0

Lookup: Does the molecule "O=C(NCc1ccoc1)C(=O)c1c[nH]c2ccc([N+](=O)[O-])cc12" have recorded pKi that is 7 or more?
Found: 1

Lookup: Does the molecule "O=C(NCc1ccco1)C(=O)c1c[nH]c2ccccc12" have recorded pKi that is 7 or more?
Found: 0

Lookup: Does the molecule "Cc1ccc(CNC(=O)C(=O)c2c[nH]c3ccccc23)o1" have recorded pKi that is 7 or more?
Found: 0

Lookup: Does the molecule "O=C(NCc1cccs1)C(=O)c1c[nH]c2ccccc12" have recorded pKi that is 7 or more?
Found: 0

Lookup: Does the molecule "O=C(NCc1ccc[nH]1)C(=O)c1c[nH]c2ccc([N+](=O)[O-])cc12" have recorded pKi that is 7 or more?
Found: 1

Lookup: Does the molecule "O=C(NCc1cc[nH]c1)C(=O)c1c[nH]c2ccc([N+](=O)[O-])cc12" have recorded pKi that is 7 or more?
Found: 1

Lookup: Does the molecule "O=C(NCc1cc2ccccc2[nH]1)C(=O)c1c[nH]c2ccccc12" have recorded pKi that is 7 or more?
Found: 0

Lookup: Does the molecule "O=C(NCc1ccoc1)C(=O)c1c[nH]c2ccccc12" have recorded pKi that is 7 or more?
Found: 0

Lookup: Does the molecule "O=C(NCc1ncc[nH]1)C(=O)c1c[nH]c2ccc([N+](=O)[O-])cc12" have recorded pKi that is 7 or more?
Found: 0

Lookup: Does the molecule "O=C(NCc1cccnc1)C(=O)c1c[nH]c2ccc([N+](=O)[O-])cc12" have recorded pKi that is 7 or more?
Found: 0

Sourced from ChEMBL document CHEMBL1146100
